experiment: Covalent reversible inhibition of Leishmania cysteine protease B using Z-Phe-Arg-7-amido-4-methylcoumarin as substrate incubated for 2 mins followed by substrate addition by fluorescence assay
PROPERTY_LABEL: pKi

- SAMPLE_SMILES: "N#CC1(NC(=O)[C@@H](Cc2ccccc2)N[C@@H](c2ccccc2)C(F)(F)F)CC1"
  VALUE: 5.37
- SAMPLE_SMILES: "N#CC1(NC(=O)[C@H](Cc2ccccc2)N[C@@H](c2ccc(Br)cc2)C(F)(F)F)CC1"
  VALUE: 6.82
- SAMPLE_SMILES: "N#CC1(NC(=O)[C@H](Cc2ccccc2)N[C@H](c2ccc(Br)cc2)C(F)(F)F)CC1"
  VALUE: 6.23
- SAMPLE_SMILES: "N#CC1(NC(=O)[C@H](Cc2ccccc2)N[C@@H](c2ccccc2)C(F)(F)F)CC1"
  VALUE: 5.77
- SAMPLE_SMILES: "Cc1ccc([C@@H](N[C@@H](Cc2ccccc2)C(=O)NC2(C#N)CC2)C(F)(F)F)cc1"
  VALUE: 5.8
- SAMPLE_SMILES: "Cc1ccc([C@H](N[C@@H](Cc2ccccc2)C(=O)NC2(C#N)CC2)C(F)(F)F)cc1"
  VALUE: 5.4
